This listing pairs compounds with measured NO-NSAID response rate % (average).
Test system: HUVEC cells
assay_explanation: CCK-8 cell viability: alleviation of proliferative toxicity of anti-tumor agents on HUVEC cells (Tables 7-1, 7-2)
Format: cell-based
conditions_used: Everolimus (5 μM), NO-NSAID 1 μM
Write down the numeric answer in % and omit the unit.

Use these answered entries as a reference point.
CC(C(=O)OCCCO[N+](=O)[O-])c1ccc(-c2ccccc2)c(F)c1 (centres unmarked) :: −2
CC(=O)Oc1ccccc1C(=O)Oc1cccc(CO[N+](=O)[O-])c1 :: −6
COc1ccc2cc(C(C)C(=O)OCCCCO[N+](=O)[O-])ccc2c1 (centres unmarked) :: −7
CC(=O)Oc1ccccc1C(=O)OCOC(=O)CCCCCO[N+](=O)[O-] :: −8

Consider the compound CC(C)Cc1ccc(C(C)C(=O)OCO/N=[N+](\[O-])N(C)C)cc1 (centres unmarked) and give its recorded NO-NSAID response rate % (average). −2

---

Tested on: human intestinal epithelial cells (FHs 74 Int)
assay_explanation: CCK-8 cell viability: alleviation of proliferative toxicity of anti-tumor agents on FHs 74 Int (Table 8-4)
Type: cell-based
conditions_used: Selumetinib (5 μM), NO-NSAID 100 μM
metric: Response rate % (average) (%)
Write down the numeric answer in % and omit the unit.

CC(=O)Oc1ccccc1C(=O)OCOC(=O)CCCCCO[N+](=O)[O-] [Compound A3] :: 29
CC(C(=O)OCCCO[N+](=O)[O-])c1ccc(-c2ccccc2)c(F)c1 (centres unmarked) [Compound A1] :: 29
COc1ccc2cc(C(C)C(=O)OCCCCO[N+](=O)[O-])ccc2c1 (centres unmarked) [Compound A5] :: 23
CC(=O)Oc1ccccc1C(=O)Oc1cccc(CO[N+](=O)[O-])c1 [Compound A2] :: 27

Consider the compound CC(C)Cc1ccc(C(C)C(=O)OCO/N=[N+](\[O-])N(C)C)cc1 (centres unmarked) [Compound A4] and give its recorded Response rate % (average). 14

---

Test system: HUVEC cells
assay_explanation: CCK-8 cell viability: alleviation of proliferative toxicity of anti-tumor agents on HUVEC cells (Tables 7-1, 7-2)
Format: cell-based
conditions_used: Homo sapiens, 24 h, Infigratinib (15 μM), NO-NSAID 100 μM, percentage increase in viable cells vs anti-tumor agent alone, read-out: Response rate % (average)
metric: activation at 100 µM (%)
Write down the numeric answer in % and omit the unit.

Use these answered entries as a reference point.
COc1ccc2cc(C(C)C(=O)OCCCCO[N+](=O)[O-])ccc2c1 (centres unmarked) [Compound A5] :: 48
CC(C)Cc1ccc(C(C)C(=O)OCO/N=[N+](\[O-])N(C)C)cc1 (centres unmarked) [Compound A4] :: 30
CC(C(=O)OCC(CO[N+](=O)[O-])O[N+](=O)[O-])c1ccc(-c2ccccc2)c(F)c1 (centres unmarked) [Compound A10] :: 32
COc1ccc2cc(C(C)C(=O)OCC(CO[N+](=O)O)C[N+](=O)[O-])ccc2c1 (centres unmarked) [Compound A9] :: 29
CC(=O)Oc1ccccc1C(=O)OCc1no[n+]([O-])c1C(N)=O [Compound A6] :: 32
CC(=O)Oc1ccccc1C(=O)Oc1cccc(CO[N+](=O)[O-])c1 [Compound A2] :: 73
CC(C(=O)OCCCO[N+](=O)[O-])c1ccc(-c2ccccc2)c(F)c1 (centres unmarked) [Compound A1] :: 80

Consider the compound CC(=O)Oc1ccccc1C(=O)OCOC(=O)CCCCCO[N+](=O)[O-] [Compound A3] and give its recorded activation at 100 µM. 28

---

Tested on: HUVEC cells
assay_explanation: CCK-8 cell viability: alleviation of proliferative toxicity of anti-tumor agents on HUVEC cells (Tables 7-1, 7-2)
Assay type: cell-based
conditions_used: Cabozantinib (5 μM), NO-NSAID 1 μM
Please use 1 whenever NO-NSAID response rate % (average) is not below 10%, and 0 whenever it is.

CC(=O)Oc1ccccc1C(=O)Oc1cccc(CO[N+](=O)[O-])c1 :: 0
CC(=O)Oc1ccccc1C(=O)OCOC(=O)CCCCCO[N+](=O)[O-] :: 1
COc1ccc2cc(C(C)C(=O)OCCCCO[N+](=O)[O-])ccc2c1 (centres unmarked) :: 1

Next up:
Determine whether measured NO-NSAID response rate % (average) meets or exceeds 10% for CC(C)Cc1ccc(C(C)C(=O)OCO/N=[N+](\[O-])N(C)C)cc1 (centres unmarked) 0

---

System: HUVEC cells
assay_explanation: CCK-8 cell viability: alleviation of proliferative toxicity of anti-tumor agents on HUVEC cells (Tables 7-1, 7-2)
Type: cell-based
conditions_used: Homo sapiens, 24 h, Gefitinib (10 μM), NO-NSAID 100 μM, percentage increase in viable cells vs anti-tumor agent alone, read-out: Response rate % (average)
metric: activation at 100 µM
Entry format: amount then unit.

Use these answered entries as a reference point.
COc1ccc2cc(C(C)C(=O)OCCCCO[N+](=O)[O-])ccc2c1 (centres unmarked) :: 21%
CC(C(=O)OCCCO[N+](=O)[O-])c1ccc(-c2ccccc2)c(F)c1 (centres unmarked) :: 30%
CC(C)Cc1ccc(C(C)C(=O)OCO/N=[N+](\[O-])N(C)C)cc1 (centres unmarked) :: 42%
CC(=O)Oc1ccccc1C(=O)OCc1no[n+]([O-])c1C(N)=O :: 77%
CC(=O)Oc1ccccc1C(=O)Oc1cccc(CO[N+](=O)[O-])c1 :: 76%
CC(=O)Oc1ccccc1C(=O)OCOC(=O)CCCCCO[N+](=O)[O-] :: 26%
COc1ccc2cc(C(C)C(=O)OCC(CO[N+](=O)O)C[N+](=O)[O-])ccc2c1 (centres unmarked) :: 40%

// next entry
Consider the compound CC(C(=O)OCC(CO[N+](=O)[O-])O[N+](=O)[O-])c1ccc(-c2ccccc2)c(F)c1 (centres unmarked) and give its recorded activation at 100 µM. 40%

---

Test system: gastric epithelial cells (GES-1)
assay_explanation: CCK-8 cell viability: alleviation of proliferative toxicity of anti-tumor agents on GES-1 (Table 8-3)
Format: cell-based, human
conditions_used: Selumetinib (5 μM), NO-NSAID 100 μM
This listing pairs molecules with measured Response rate % (average).
Write down the numeric answer in % and omit the unit.

Use these answered entries as a reference point.
CC(C(=O)OCCCO[N+](=O)[O-])c1ccc(-c2ccccc2)c(F)c1 (centres unmarked) :: 18
CC(C)Cc1ccc(C(C)C(=O)OCO/N=[N+](\[O-])N(C)C)cc1 (centres unmarked) :: 2
CC(=O)Oc1ccccc1C(=O)Oc1cccc(CO[N+](=O)[O-])c1 :: 17
COc1ccc2cc(C(C)C(=O)OCCCCO[N+](=O)[O-])ccc2c1 (centres unmarked) :: 12

// next entry
Consider the molecule CC(=O)Oc1ccccc1C(=O)OCOC(=O)CCCCCO[N+](=O)[O-] and give its recorded Response rate % (average). 19

---

This listing pairs compounds with measured Response rate % (average).
Tested on: human oral keratinocytes (HOK)
assay_explanation: CCK-8 cell viability: alleviation of proliferative toxicity of anti-tumor agents on HOK (Table 8-2)
Assay type: cell-based
conditions_used: Selumetinib (5 μM), NO-NSAID 100 μM

Use these answered entries as a reference point.
CC(C(=O)OCCCO[N+](=O)[O-])c1ccc(-c2ccccc2)c(F)c1 (centres unmarked) [Compound A1] :: 15%
CC(C)Cc1ccc(C(C)C(=O)OCO/N=[N+](\[O-])N(C)C)cc1 (centres unmarked) [Compound A4] :: −2%
COc1ccc2cc(C(C)C(=O)OCCCCO[N+](=O)[O-])ccc2c1 (centres unmarked) [Compound A5] :: 8%

Consider the compound CC(=O)Oc1ccccc1C(=O)Oc1cccc(CO[N+](=O)[O-])c1 [Compound A2] and give its recorded Response rate % (average). 13%

Consider the compound CC(=O)Oc1ccccc1C(=O)OCOC(=O)CCCCCO[N+](=O)[O-] [Compound A3] and give its recorded Response rate % (average). 16%

---

This listing pairs compounds with measured NO-NSAID response rate % (average).
Tested on: HUVEC cells
assay_explanation: CCK-8 cell viability: alleviation of proliferative toxicity of anti-tumor agents on HUVEC cells (Tables 7-1, 7-2)
Format: cell-based
conditions_used: Lenvatinib (10 μM), NO-NSAID 0.1 μM
Write down the numeric answer in % and omit the unit.

CC(=O)Oc1ccccc1C(=O)Oc1cccc(CO[N+](=O)[O-])c1 [Compound A2] :: 25

Consider the compound CC(=O)Oc1ccccc1C(=O)OCOC(=O)CCCCCO[N+](=O)[O-] [Compound A3] and give its recorded NO-NSAID response rate % (average). 21

Consider the compound CC(C)Cc1ccc(C(C)C(=O)OCO/N=[N+](\[O-])N(C)C)cc1 (centres unmarked) [Compound A4] and give its recorded NO-NSAID response rate % (average). 24

Consider the compound COc1ccc2cc(C(C)C(=O)OCCCCO[N+](=O)[O-])ccc2c1 (centres unmarked) [Compound A5] and give its recorded NO-NSAID response rate % (average). 11

Consider the compound CC(C(=O)OCCCO[N+](=O)[O-])c1ccc(-c2ccccc2)c(F)c1 (centres unmarked) [Compound A1] and give its recorded NO-NSAID response rate % (average). 21

Where these numbers come from: patent US20250170090A1
